Tested on: HCC-2998 colon
MEASUREMENT_DESCRIPTION: NCI tumour cell line growth inhibition, 48 h
PROPERTY: TGI

Task item: Give recorded TGI with HCC-2998 colon for the following compound: `C1CSCCSCSCCS1`
Reply: > 100 µM

Task item: Could you share what TGI was measured for `CC(C)OC/N=C(/N)NC#N` , tested on HCC-2998 colon?
Reply: > 100 µM

Task item: What TGI appears in the records for this compound with HCC-2998 colon? `CS(=O)(=O)c1cccc(Nc2ncc3cc(-c4ccccc4Cl)ccc3n2)c1`
Reply: > 33.3 µM

Task item: Form field - read-out: TGI; system: HCC-2998 colon; submitted item: `CCOC(=N)CC(=O)Nc1ccccc1`
Reply: > 31.6 µM

Task item: Recall the recorded TGI for `Cc1nc2cc3ccccc3cc2[nH]c1=O` with HCC-2998 colon and state it.
Reply: > 100 µM

Task item: For the record `c1ccc2c(c1)Cc1c(Cc3csc4ccccc34)ccc3cccc-2c13` , what value of TGI is listed for HCC-2998 colon?
Reply: > 100 µM

====

Tested on: EKVX NSCLC
MEASUREMENT_DESCRIPTION: NCI tumour cell line growth inhibition, 48 h
PROPERTY: TGI (µM)
Quick note: give the figure in µM, leave out the unit.

{"COMPOUND": "COc1c(C(C)(C)C)cc(CC2C(=O)C=CC2=O)cc1C(C)(C)C", "READOUT_UNIT": "µM", "VAL": 37.7}

Task item: Given the entry O=CC1C(Cl)=Nc2nc3ccccc3n2C1c1ccccc1 (stereo not given) , report its measured TGI.
Reply: 64.6

====

Test system: HOP-92 NSCLC
MEASUREMENT_DESCRIPTION: NCI tumour cell line growth inhibition, 48 h
# Lookup of reported log10 of TGI keyed by entry
Values are log10 of TGI in µM.

{"CHEMICAL_STRUCTURE": "O=C(/C=C/c1ccccn1)c1ccc(OCc2nnc(-c3ccc(Cl)cc3)o2)cc1", "VAL": 0.80}
{"CHEMICAL_STRUCTURE": "COc1ccc(C(=O)c2cc3c(N)c(C(=O)Nc4cccc(Br)c4C)sc3nc2C)cc1", "VAL": 0.22}
{"CHEMICAL_STRUCTURE": "CN(C)Cc1ccc(NC(=O)c2cncc(C#Cc3cnc(N)c4ncccc34)c2)cc1F", "VAL": 1.33}
{"CHEMICAL_STRUCTURE": "C#C[C@@]1(O)[C@@H](CO)O[C@@H](n2cc(C(F)(F)F)c3c(N)ncnc32)[C@@H]1O", "VAL": 0.87}

Now consider a different compound.
Task item: Provide value of log10 of TGI for this record tested with HOP-92 NSCLC: `COc1ccc2c(c1)/C(=C\c1c(-c3cc(OC)ccc3OC)nc3sccn13)C(=O)N2`
Reply: 0.54

====

Tested on: NCI-H23 lung
MEASUREMENT_DESCRIPTION: NCI tumour cell line growth inhibition, 48 h
Reported TGI values for the following molecules.

Below: 8 molecules and their reported TGI.
{"MOLECULE": "COC(=O)c1ccc(C)cc1CC1Cc2cccc(C)c2C1=O (stereo not given)", "TGI": "> 100 µM"}
{"MOLECULE": "Cc1ccc(N=C2N=C(N3CC(C)OC(C)C3)c3ccccc32)cc1 (stereo not given)", "TGI": "78.8 µM"}
{"MOLECULE": "Cc1cn(Cc2cccc(C3=NCCCN3)c2)c(=O)n(Cc2cccc(C3=NCCCN3)c2)c1=O", "TGI": "> 100 µM"}
{"MOLECULE": "COC(=O)c1c(O)ccc2c1c1c(n2Cc2ccccc2OC)C(=O)c2ccccc2C1=O", "TGI": "34.8 µM"}
{"MOLECULE": "COc1cc2c(c(OC)c1OC)-c1ccc(SC)c(=O)cc1[C@@H](NC(=O)C(F)(F)F)CC2", "TGI": "> 4.64 µM"}
{"MOLECULE": "CS(=O)(=O)c1ccc2nc(-c3ccc(O)cc3)sc2c1", "TGI": "39.6 µM"}
{"MOLECULE": "COC(=O)CN1C(=O)C2(C(=O)OC)OC1(c1ccc([N+](=O)[O-])cc1)C1C(=O)N(c3ccccc3)C(=O)C12 (stereo not given)", "TGI": "> 100 µM"}
{"MOLECULE": "NCCCNc1nc2ccccc2c2c(=O)c3cccc(Cl)c3sc12", "TGI": "2.85 µM"}

Task item: For the molecule shown here, `COC(=O)c1c(-c2cc(OC)c(OC)c(OC)c2)oc2ccccc2c1=O` , give the reported TGI.
Reply: > 100 µM

Task item: Consider the molecule shown here: `COc1ccc(C(=O)c2cc3c(N)c(C(=O)Nc4cccc(Br)c4C)sc3nc2C)cc1` What is its recorded TGI?
Reply: > 100 µM
